Several reports have described IC50 for UniProt:P06870; a selection of those results is presented here.

# compound, tested system, IC50
records = [
    ("COCc1nn(Cc2ccc3c(c2)CN(C)CC3)cc1C(=O)NCc1c(-n2cnc(C)n2)ccc(OC)c1F", "UniProt:P06870", "> 40 µM"),
    ("Nc1nccc2cc(CNC(=O)c3cncc(Cc4ccc(N5CCCC5CO)nc4)c3)ccc12 (centres unmarked)", "UniProt:P06870", "5.15 µM"),
    ("Cc1cnn(Cc2ccc(Cn3cc(C(=O)NCc4ccc5c(N)nccc5c4)c(C4CCC4)n3)cc2)c1", "UniProt:P06870", "5.97 µM"),
    ("Nc1nccc2cc(CNC(=O)c3cn(Cc4ccc(Cn5ccnn5)cc4)nc3C3CC3)ccc12", "UniProt:P06870", "> 10 µM"),
    ("CC(C)[C@H](C(=O)N[C@@H](Cc1ccc(F)c(F)c1)C(=O)NCc1ccc(N)nc1)N(C)C", "UniProt:P06870", "0.005 µM"),
]

Report IC50 for Cc1oc(-c2ccccc2)nc1Cn1c(C)cc(C(=O)NCc2ccc(CN)cc2)c1C tested on UniProt:P06870.
> 10 µM

Continue with Cc1cc(C(=O)NCc2ccc(CN)cc2)c(C)n1Cc1csc(-c2cccc(F)c2)n1
> 10 µM

Continue with Cc1cnn(Cc2ccc(Cn3cc(C(=O)NCc4c(F)ccc(Cl)c4F)c(C(F)(F)F)n3)cc2)c1
> 10 µM

* * *

Several reports have described IC50 for Human KLK1 (Homo sapiens (Human), UniProt P06870); a selection of those results is presented here.

# compound structure, IC50
data = [
    ("COc1cccc(CNC(=O)c2cn(Cc3ccc(Cn4ccccc4=O)cc3)c(C)n2)c1F", "> 10 µM"),
    ("Nc1ccc(CNC(=O)[C@H](Cc2ccc(Cl)c(Cl)c2)NC(=O)[C@H]2CSCN2)cn1", "0.0071 µM"),
    ("Nc1nn(Cc2ccc(C(=O)N3CCCCC3)cc2)cc1C(=O)NCCOc1cccc(Cl)c1", "> 40 µM"),
]

Which IC50 reading was recorded for the compound COCc1nn(Cc2ccc(Cn3ccccc3=O)cc2)cc1C(=O)NCCOc1cc(Cl)cc(OC)c1 ?
> 10 µM

* * *

Several reports have described IC50 for Human KLK1 (Homo sapiens (Human), UniProt P06870); a selection of those results is presented here.

Which IC50 reading was recorded for the compound Nc1nccc2cc(CNC(=O)c3cncc(Cc4ccc(N5CCC(O)C5)nc4)c3)ccc12 (centres unmarked) ?
6.01 µM

Continue with CCCCN(C)[C@@H](C)C(=O)N[C@@H](Cc1ccc(F)cc1)C(=O)NCc1ccc(N)nc1
0.0291 µM

Continue with O=C(NCc1n[nH]c2ccc(Cl)cc12)c1cn(Cc2ccc(N3CCCC3)nc2)nc1C(F)(F)F
> 10 µM

Continue with Cc1cnn(Cc2ccc(Cn3cc(C(=O)NCc4ccc5c(N)nccc5c4)c(N4CCOCC4)n3)cc2)c1
> 10 µM

Continue with COCc1nn(Cc2ccc3c(c2)CN(C)C3)cc1C(=O)NCc1c(-n2cnc(C(F)F)n2)ccc(OC)c1F
> 40 µM

Continue with Cc1cnn(Cc2ccc(Cn3cnc(C(=O)NCc4ccc(CN)cc4C)c3)cc2)c1
> 10 µM

Continue with COCc1nn(Cc2cnc(N3CCCC3)nc2)cc1C(=O)NCc1cc(OC)ccc1-n1cnnn1
> 4 µM

Continue with Nc1ccc(CNC(=O)[C@H](Cc2ccc(Cl)c(Cl)c2)NC(=O)[C@H](N)c2ccccc2)cn1
0.0046 µM

* * *

Several reports have described IC50 for UniProt P06870; a selection of those results is presented here.

The cases that follow already have their IC50 on record.
# compound, tested system, IC50
measured = [
    ("COCc1nn(Cc2ccc3c(c2)CN(C)CC3)cc1C(=O)NCc1c(-n2cnc(C(F)F)n2)ccc(C(C)(F)F)c1F", "UniProt P06870", "> 40 µM"),
    ("Nc1nn(Cc2ccc(Cn3ccccc3=O)cc2)cc1C(=O)NCc1cccc(O)c1F", "UniProt P06870", "> 40 µM"),
    ("CCN1CCc2cc(Cn3cc(C(=O)NCc4c(-n5ccc(C#N)n5)ccc(OC)c4F)c(COC)n3)ccc2C1", "UniProt P06870", "> 40 µM"),
    ("COc1ccc(F)c(CNC(=O)c2cn(Cc3ccc(Cn4ccccc4=O)cc3)nc2N)c1F", "UniProt P06870", "> 40 µM"),
    ("NC(=O)c1cccc(CNC(=O)c2cn(Cc3ccc(Cn4ccccc4=O)cc3)nc2C2CC2)c1", "UniProt P06870", "> 10 µM"),
]

Report IC50 for Cc1cnn(Cc2ccc(Cn3cc(C(=O)NCc4ccc5[nH]ccc5c4)c(C(F)(F)F)n3)cc2)c1 tested on UniProt P06870.
> 10 µM

Continue with Cc1ccc(Cl)cc1OCCNC(=O)c1cn(Cc2ccc(Cn3ccccc3=O)cc2)nc1N
> 40 µM

Continue with CN[C@H](Cc1ccccc1)C(=O)N[C@@H](Cc1ccc(Cl)c(Cl)c1)C(=O)NCc1ccc(N)nc1
0.00071 µM

* * *

Several reports have described pIC50 for Human KLK1 (Homo sapiens (Human), UniProt P06870); a selection of those results is presented here.
pIC50: −log10 of the molar value.

The cases that follow already have their pIC50 on record.
# compound structure, measured attribute, result
rows = [
    ("COc1ccc(-n2cc(C)nn2)c(CNC(=O)c2cn(Cc3ccc4c(c3)CN(C)CC4)nn2)c1F", "pIC50", "< 4.40"),
    ("Cc1cnn(Cc2ccc(Cn3cc(C(=O)NCc4c(F)cc(Cl)cc4F)c(C(F)(F)F)n3)cc2)c1", "pIC50", "< 5.00"),
]

Report pIC50 for COCc1nn(Cc2ccc3c(c2)CN(C(C)C)CC3)cc1C(=O)NCc1c(-n2cc(C)nn2)ccc(OC)c1F tested on Human KLK1 (Homo sapiens (Human), UniProt P06870).
< 4.40

Continue with Cc1cc(C(=O)NCc2ccc(C3(N)CC3)cc2)c(C)n1Cc1csc(-c2ccccc2)n1
< 5.00

Continue with O=C(NCCOc1cccc(Cl)c1)c1cn(Cc2ccc(Cn3ccccc3=O)cc2)nc1C1CC1
< 5.00

Continue with O=C(NCc1cnc2[nH]ccc2c1)c1cnn(Cc2ccc(COc3cccc(F)n3)cc2)c1
< 4.40

Continue with COc1cc(F)c(CNC(=O)c2cn(Cc3ccc(Cn4cc(C)cn4)cc3)nc2C(F)(F)F)c(F)c1
< 5.00

Continue with COCc1nn(Cc2ccc3c(c2)CN(C)C3)cc1C(=O)NCc1c(-n2cnc(C(F)(F)F)n2)ccc(OC)c1F
< 4.40

Continue with Cc1cc(C(=O)NC2(c3ccc(CN)cc3)CC2)c(C)n1Cc1csc(-c2ccccc2)n1
< 5.00

* * *

Several reports have described IC50 for Human KLK1 (Homo sapiens (Human), UniProt P06870); a selection of those results is presented here.

The cases that follow already have their IC50 on record.
# compound, IC50
rows = [
    ("COCc1nn(Cc2ccc(Cn3ccccc3=O)cc2)cc1C(=O)NCc1c(F)cccc1OC(F)F", "> 10 µM"),
    ("Nc1nn(Cc2ccc(Cn3ccccc3=O)cc2)cc1C(=O)N[C@@H]1CCN(c2cccc(Cl)c2)C1=O", "> 40 µM"),
    ("COCc1nn(Cc2ccc(Cn3ccccc3=O)cc2)cc1C(=O)NCc1cc(OC)ccc1C(F)(F)F", "> 40 µM"),
    ("Nc1nn(Cc2ccc(Cn3ccccc3=O)cc2)cc1C(=O)NCCOc1cccc(Cl)c1Cl", "> 40 µM"),
    ("CNCC(=O)N[C@@H](CC1CCCC2CCCCC21)C(=O)NCc1ccc(N)nc1 (some centres unmarked)", "0.0216 µM"),
]

Which IC50 reading was recorded for the compound Cc1nc(C(=O)NCCOc2cccc(Cl)c2)cn1Cc1ccc(Cn2ccccc2=O)cc1 ?
> 10 µM

Continue with COc1ccc(F)c(CNC(=O)c2cn(Cc3ccc(Cn4cc(C)cn4)cc3)nc2C(F)(F)F)c1
> 10 µM

Continue with COCc1nn(Cc2ccc3c(c2)CCN(C)C3)cc1C(=O)NCc1c(-n2cc(C(F)F)nn2)ccc(OC)c1F
> 40 µM

Continue with CCN1CCc2cc(Cn3cc(C(=O)NCc4c(-n5cc(C)nn5)ccc(OC)c4F)c(COC)n3)ccc2C1
> 40 µM

Continue with CCn1c(C(=O)NCc2ccc3c(N)nccc3c2)cc(C)c1Cc1ccc(Cn2cc(C)cn2)cc1
> 10 µM

Continue with O=C(NCc1cnc2[nH]ccc2c1)c1cn(Cc2ccc(Cn3ccccc3=O)cc2)nc1C(F)(F)F
> 10 µM

Continue with C[C@H](NC(=O)c1cn(Cc2ccc(Cn3ccccc3=O)cc2)nc1N)C(=O)N(C)c1cccc(Cl)c1
> 40 µM

Continue with Cc1cc(C(=O)NCc2cnc3[nH]ccc3c2)c(C)n1Cc1csc(-c2ccccc2)n1
> 10 µM

Continue with Nc1nn(Cc2ccc(Cn3ccccc3=O)cc2)cc1C(=O)NCC(=O)Nc1ccc(Cl)cc1
> 10 µM
